I'd be grateful if you could share measured growth for these entries.
system: NCI-H460 lung; test: NCI-60 one-dose screen, 48 h (100 = growth as untreated, 0 = no growth, -100 = all killed); conditions: 10 µM unless noted
About 83,000 compounds went through this panel and 20% of them were active in at least one assay; those are over-represented in the sample as a whole.
Numbers only, in %.

Worked examples follow.
O=C(c1nc2ccccc2[nH]1)C1[C@@H](c2cccc(O)c2)C2CC3CCCCC3N2[C@@]12C(=O)Nc1cc(Cl)ccc12 (stereo not given in full)	13.1
CCN(CCO)CCNc1ccc(C)c2sc3cc(Cl)ccc3c(=O)c12	-75.9
COc1cc2c(cc1OC)C(=O)C(CC1CCN(C(=O)Nc3ccc(C)cc3)CC1)C2 (stereo not given)	97.3
O=C(NCc1ccccc1)C1CN(c2ccc(Cl)cc2)N(c2ccc(Cl)cc2)C1=O (stereo not given)	85.6
O=C(NC1CCCCC1)C(c1cccs1)N(CCc1ccccc1)C(=O)c1ccco1 (stereo not given)	103
S=C1NC2(c3ccccc3)CCC(=S)N2c2ccccc21 (stereo not given)	108

Hey, quick one: what's growth for each of these?
1. COc1ccc(-c2c(-c3ccc(OC)c(O)c3)cnc3ncnn23)cc1
2. O=C(Nc1ccc(Br)cc1F)c1cc(I)ccc1O

[A]
108
6.01

Each compound below has a recorded value; state its growth.
1. COC(=O)C1=C(C)NC(C)=C(C(=O)OC)C(N2C(=O)CCC2=O)C1 (stereo not given)
2. O=Nc1c(O)ccc2ccccc12.O=Nc1c(O)ccc2ccccc12.O=Nc1c([O-])ccc2ccccc12.[Fe+3]

[A]
101
105
